biological target: T1, HLA-A2/E7 (11-19) tetramer (human; HPV 16); test: tetramer flow cytometry; transfected 1:1 CD4+ and CD4+/CD8+ Jurkat-derived cells;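 further: cells transiently transfected with TCR plasmids, stained 48 h later with HLA-A*02:01 peptide-MHC tetramer plus anti-CD8 antibody, read by flow cytometry to assess CD8-independent tetramer binding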
T1 construct: also called E7(11-19) peptide-MHC tetramer; E7 (11-19)-loaded tetramer
Measurement type: % cells in E7 tet-/CD8+ quadrant (%)
Kindly provide the numeric value in % only, without the unit symbol.

Let me know recorded % cells in E7 tet-/CD8+ quadrant for TCR 40 (codon optimized, cysteine modified version) (TCR, V domains shown) V domain 1: GQQVMQIPQYQHVQEGEDFTTYCNSSTTLSNIQWYKQRPGGHPVFLIQLVKSGEVKKQKRLTFQFGEAKKNSSLHITATQTTDVGTYFCAGRNNFNKFYFGSGTKLNVKP V domain 2: EPEVTQTPSHQVTQMGQEVILRCVPISNHLYFYWYRQILGQKVEFLVSFYNNEISEKSEIFDDQFSVERPDGSNFTLKIRSTKLEDSAMYFCAITARSSYEQYFGPGTRLTVTE , thanks. 42.4

// fetch % cells in E7 tet-/CD8+ quadrant given entry TCR 39 (codon optimized, cysteine modified version) (TCR, V domains shown) V domain 1: GQQLNQSPQSMFIQEGEDVSMNCTSSSIFNTWLWYKQEPGEGPVLLIALYKAGELTSNGRLTAQFGITRKDSFLNISASIPSDVGIYFCAGYSSSNDYKLSFGAGTTVTVRA V domain 2: EPEVTQTPSHQVTQMGQEVILRCVPISNHLYFYWYRQILGQKVEFLVSFYNNEISEKSEIFDDQFSVERPDGSNFTLKIRSTKLEDSAMYFCASTPRDRGKEAFFGQGTRLTVVE 37
